The values you see were collected from patent US5366982A.

Tested on: guinea-pig pulmonary parenchyma
Assay: L. Parenchyma: guinea-pig pulmonary parenchyma contraction antagonism induced by LTB4 (Sirois)
Format: cell-based
Conditions: Cavia porcellus; Table XIX; guinea-pig pulmonary parenchyma contraction induced by LTB4; read-out: IC50 L. Parenchyma
Attribute measured: IC50 (nM)
Write the answer as a number in nM, unit excluded.

Example molecules with recorded IC50:
O=C(O)CCCCCCOc1cc(-c2ccccc2)cc(-c2ccccc2)n1 :: 1300
CC(C)(CCCCCOc1cc(-c2ccccc2)cc(-c2ccccc2)n1)C(=O)O :: 30
CNc1ccc(-c2cc(OCCCCCC(=O)O)nc(-c3ccccc3)c2)cc1 :: 150
CSc1ccc(-c2cc(OCCCCCC(=O)O)nc(-c3ccccc3)c2)cc1 :: 3000
CC(C)(CCCCOc1cc(-c2ccccc2)cc(-c2cccs2)n1)C(=O)O :: 1000

// next entry
Prompt: Please look up its IC50: `Cc1ccc(-c2cc(OCCCCCC(=O)O)nc(-c3ccccc3)c2)cc1`
Response: 100
